Measured values drawn from the nanobody polyreactivity screen of Harvey et al. (2022) for this set.

assay-info: yeast display, Sf9 membrane polyspecificity reagent, FACS + sequencing; frameworks hold sequencing errors
readout-label: polyreactivity (PSR sort gate)

Reference set, count: 4
residue-codes | readout-value
QVQLVESGGGLVQAGGSLRLSCAASGFIFDRYAMGWSRQAPGKERELVAAITGSGGSTYYADSVKGRFTISRDNAKNTVYFQMNSLKPEDTAVYYSAAESYDYFALFYVSIPYYYWGQGTQVTVSS | high polyreactivity
QVQLVETGAGLVQAGGSLRLSCAASGRTYVYNAMGWYRQAPGKERELVAAIDGGGDRTYYADSVKGRFTISRDNAKNTVYLQMNSRKPEDTAVYYCARDQGDTYYYSYPEGDYWGQGTQVTVSS | low polyreactivity
QVQLVESGGGLVNAGGTLRLSCAASGSTFYRNAMGWYRQAPGKERELVATITYSGGSTYYADSVKGRFTNSRDNAKNTVYLQMNSLKPEDTAVYYCAVRRLRRNFVSYYYWGQGTQVTVSS | high polyreactivity
QVQLVESGVGLVQAGGSLRLSCAASGRIFRGYAMGWYRQAPGKEREFVAAISWSGGDTYYADSVKGRFTISRDNAKNTVYLQMNSLKAEDTAVYYFATEYRLIPGPFVWPYDYWGQGTQVTVSS | high polyreactivity

Consider the record given below.
Q: Item under review: `QVQLVESGGGLVQAGGSLRLSCAASGFIFNYYAMGWYRQAPGKEREFVAAITWRGGSTNYADSVKGRFTISRDNAKNTVYLQMNSLKPEETAVYYCAAYSVWGGSYLALDYWGQGTQVTVSS` . Reported polyreactivity (PSR sort gate)?
Ans: low polyreactivity
